Each item that follows carries a reported pIC50.
- TARGET_UNDER_TEST: catalytic domain of human collagenase 3 (MMP-13) (Homo sapiens)
- Construct: Determining the enzyme activity of the catalytic domain of human collagenase 3 (MMP-13); purchased INVITEK, Berlin 30 100 803
- MEASUREMENT_NOTES: Enzyme activity of the catalytic domain of human collagenase 3 (MMP-13), fluorogenic substrate
- Format: biochemical
- STATED_CONDITIONS: catalytic domain, activated proenzyme, pH 7.5; read-out: IC50 MMP13
Reminder that pIC50 is minus the log10 of a molar concentration.

Example entries begin here.
| STRUCTURE_SMILES | TARGET_UNDER_TEST | pIC50 |
| --- | --- | --- |
| O=C(NCc1ccc(OCCN2CCOCC2)cc1)c1cc(C(=O)NCc2ccc3c(c2)CCO3)ncn1 | catalytic domain of human collagenase 3 (MMP-13) (Homo sapiens) | 7.70 |
| O=C1CN(C(=O)c2ccc(CNC(=O)c3cc(C(=O)NCc4ccc5c(c4)CCO5)ncn3)cc2)CCN1 | catalytic domain of human collagenase 3 (MMP-13) (Homo sapiens) | 7.52 |

State the measured pIC50 (catalytic domain of human collagenase 3 (MMP-13) (Homo sapiens)) of `O=C(NCc1ccc2c(c1)CCO2)c1cc(C(=O)NCc2cccs2)ncn1` 7.52

###

Each item that follows carries a reported IC50.
- TARGET_UNDER_TEST: catalytic domain of human collagenase 3 (MMP-13) (Homo sapiens)
- Construct: Determining the enzyme activity of the catalytic domain of human collagenase 3 (MMP-13); purchased INVITEK, Berlin 30 100 803
- MEASUREMENT_NOTES: Enzyme activity of the catalytic domain of human collagenase 3 (MMP-13), fluorogenic substrate
- Assay type: biochemical
- STATED_CONDITIONS: catalytic domain, activated proenzyme, pH 7.5; read-out: IC50 MMP13
Kindly provide the numeric value in nM only, without the unit symbol.

| STRUCTURE_SMILES | READOUT_UNITS | IC50 |
| --- | --- | --- |
| COc1cccc(CNC(=O)c2cc(C(=O)NCc3ccc(C(=O)N4CCN(c5ccncc5)CC4)cc3)ncn2)c1 | nM | 20 |
| COc1cccc(CNC(=O)c2cc(C(=O)NCc3ccc(NC(=O)OC(C)C)cc3)ncn2)c1 | nM | 20 |
| O=C(NCc1ccc2c(c1)CCO2)c1cc(C(=O)NCc2cc(Cl)cs2)ncn1 | nM | 22 |
| COc1cccc(CNC(=O)c2cc(C(=O)NCc3cccc(NC(=O)NS(C)(=O)=O)c3)ncn2)c1 | nM | 33 |

Next:
Return reported IC50. Input compound: `N#CNC(=O)c1ccc(CNC(=O)c2cc(C(=O)NCc3ccc4c(c3)CCO4)ncn2)cc1` 3.5
